target.of.assay: α7-5HT3 (Homo sapiens, UniProt P36544, M226I/T225I)
Sequence (P36544 with tags, fused parts or gaps T225I/M226I limits assumed): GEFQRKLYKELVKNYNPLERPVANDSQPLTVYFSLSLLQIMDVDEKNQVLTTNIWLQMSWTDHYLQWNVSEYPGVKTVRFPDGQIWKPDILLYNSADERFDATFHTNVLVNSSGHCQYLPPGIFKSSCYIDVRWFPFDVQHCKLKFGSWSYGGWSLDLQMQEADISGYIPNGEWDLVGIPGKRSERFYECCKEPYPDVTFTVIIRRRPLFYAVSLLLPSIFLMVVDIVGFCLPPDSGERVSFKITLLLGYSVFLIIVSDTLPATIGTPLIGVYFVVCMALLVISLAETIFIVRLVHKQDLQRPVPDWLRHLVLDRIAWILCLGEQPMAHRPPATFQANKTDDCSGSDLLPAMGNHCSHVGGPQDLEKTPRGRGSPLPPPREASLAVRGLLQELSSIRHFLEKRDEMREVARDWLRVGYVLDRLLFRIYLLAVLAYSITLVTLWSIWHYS
reported.conditions: read-out: EC50MP
value.kind: EC50

- molecule: "CCOc1cnc2cc3c(cc2n1)C1CNCC3C1 (centres unmarked)"
  value: "> 100 µM"

Consider the additional molecule presented here.
Using the record for CCCOc1cnc2cc3c(cc2n1)C1CNCC3C1 (centres unmarked) , state its measured EC50.
> 100 µM

====

target.of.assay: α7-5HT3 (Homo sapiens, UniProt P36544, M226I/T225I)
reported.conditions: read-out: α7-5HT3 EC50; HEK cells; Table 3
Give pEC50 for every item shown.
Give bare numbers, as −log10 of the molar value.

Some entries whose results are on file:
- molecule: "O=C(Nc1ccccc1)N[C@@H]1CN2CCC1CC2"
  value.kind: "pEC50"
  value: 6.19
- molecule: "CN1C2CCC1CC(NC(=S)c1c[nH]c3ccccc13)C2 (stereo not shown)"
  value.kind: "pEC50"
  value: 5.42
- molecule: "O=C(N[C@@H]1CN2CCC1CC2)c1c[nH]c2ccccc12"
  value.kind: "pEC50"
  value: 7.52

Consider the additional molecule presented here.
Using the record for O=C(NC1C2CCN(CC2)C1Cc1cccnc1)c1ccc(C(F)(F)F)cc1 (mixture of isomers) , state its measured pEC50.
6.08

====

target.of.assay: α7^Q79G-GlyR (Homo sapiens, UniProt P36544, Q79G)
Sequence (P36544 with tags, fused parts or gaps Q79G): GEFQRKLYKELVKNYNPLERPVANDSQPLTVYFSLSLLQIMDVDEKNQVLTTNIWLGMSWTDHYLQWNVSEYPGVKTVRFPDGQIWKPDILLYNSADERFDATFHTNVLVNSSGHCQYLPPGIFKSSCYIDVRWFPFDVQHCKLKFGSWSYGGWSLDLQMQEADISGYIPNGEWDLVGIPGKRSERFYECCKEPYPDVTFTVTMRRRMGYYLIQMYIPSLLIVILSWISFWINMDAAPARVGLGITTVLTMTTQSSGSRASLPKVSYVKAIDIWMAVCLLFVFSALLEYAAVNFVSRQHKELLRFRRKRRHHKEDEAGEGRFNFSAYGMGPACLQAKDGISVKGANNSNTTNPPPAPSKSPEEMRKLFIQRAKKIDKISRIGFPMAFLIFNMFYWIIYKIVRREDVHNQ
reported.conditions: HEK cells; Table 2; read-out: Mean EC50 and SEM in parentheses
value.kind: EC50 (nM)
One number for each entry, in nM.

Give EC50; test system α7^Q79G-GlyR (Homo sapiens, UniProt P36544, Q79G); molecule Cn1cc(C(=O)C(=O)NC2CN3CCC2CC3)c2ccccc21 (stereo not shown)
2000

====

target.of.assay: α7^Q79A-5HT3 (Homo sapiens, UniProt P36544, M226I/Q79A/T225I)
reported.conditions: HEK cells; Table 1
value.kind: pEC50
Give bare numbers, as −log10 of the molar value.

Using the record for Cn1cc(C(=O)C(=O)NC2CN3CCC2CC3)c2ccccc21 (stereo not shown) , state its measured pEC50.
5.17

====

target.of.assay: α4β2 nAChR (Homo sapiens, UniProt P17787+P43681)
Sequence (P43681 29-627 limits assumed): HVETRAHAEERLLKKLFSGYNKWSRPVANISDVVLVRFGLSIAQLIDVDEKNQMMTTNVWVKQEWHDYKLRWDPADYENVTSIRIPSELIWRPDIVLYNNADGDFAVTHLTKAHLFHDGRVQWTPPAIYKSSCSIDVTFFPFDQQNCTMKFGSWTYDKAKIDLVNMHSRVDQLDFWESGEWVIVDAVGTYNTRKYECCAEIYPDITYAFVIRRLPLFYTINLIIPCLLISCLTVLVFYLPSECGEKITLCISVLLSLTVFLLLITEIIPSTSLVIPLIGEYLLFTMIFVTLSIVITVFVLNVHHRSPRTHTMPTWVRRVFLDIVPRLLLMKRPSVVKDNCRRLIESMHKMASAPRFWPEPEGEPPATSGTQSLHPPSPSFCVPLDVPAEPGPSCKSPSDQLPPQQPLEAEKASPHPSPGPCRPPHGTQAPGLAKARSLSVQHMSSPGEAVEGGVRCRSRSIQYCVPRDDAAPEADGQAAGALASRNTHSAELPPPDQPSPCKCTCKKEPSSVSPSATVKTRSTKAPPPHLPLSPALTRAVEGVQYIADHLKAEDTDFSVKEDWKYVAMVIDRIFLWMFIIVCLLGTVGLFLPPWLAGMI
Sequence (P17787 26-502): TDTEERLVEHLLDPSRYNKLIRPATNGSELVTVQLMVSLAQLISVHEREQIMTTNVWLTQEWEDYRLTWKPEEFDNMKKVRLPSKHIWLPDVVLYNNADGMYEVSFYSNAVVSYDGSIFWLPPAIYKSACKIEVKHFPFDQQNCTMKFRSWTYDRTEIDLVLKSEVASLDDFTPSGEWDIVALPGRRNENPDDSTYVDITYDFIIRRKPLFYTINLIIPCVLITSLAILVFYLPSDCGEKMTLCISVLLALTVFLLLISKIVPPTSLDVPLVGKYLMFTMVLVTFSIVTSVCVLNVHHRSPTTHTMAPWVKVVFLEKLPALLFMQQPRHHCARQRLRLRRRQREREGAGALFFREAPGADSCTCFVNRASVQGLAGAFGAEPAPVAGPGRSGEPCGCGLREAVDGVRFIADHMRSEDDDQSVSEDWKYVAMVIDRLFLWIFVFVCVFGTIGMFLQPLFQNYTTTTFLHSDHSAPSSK
protocol.text: Agonist potency at α4β2 nAChR
reported.conditions: read-out: EC50MP
value.kind: EC50

- molecule: "CCCOc1cnc2cc3c(cc2n1)C1CNCC3C1 (centres unmarked)"
  target.of.assay: "α4β2 nAChR (Homo sapiens, UniProt P17787+P43681)"
  value: "> 30 µM"

Give EC50; test system α4β2 nAChR (Homo sapiens, UniProt P17787+P43681); molecule CCOc1cnc2cc3c(cc2n1)C1CNCC3C1 (centres unmarked)
> 30 µM

====

target.of.assay: α7^Q79S-5HT3 (Homo sapiens, UniProt P36544, M226I/Q79S/T225I)
Construct: expressed in transfected cells; host or cells: HEK cells
Sequence (P36544 with tags, fused parts or gaps Q79S/T225I/M226I limits assumed): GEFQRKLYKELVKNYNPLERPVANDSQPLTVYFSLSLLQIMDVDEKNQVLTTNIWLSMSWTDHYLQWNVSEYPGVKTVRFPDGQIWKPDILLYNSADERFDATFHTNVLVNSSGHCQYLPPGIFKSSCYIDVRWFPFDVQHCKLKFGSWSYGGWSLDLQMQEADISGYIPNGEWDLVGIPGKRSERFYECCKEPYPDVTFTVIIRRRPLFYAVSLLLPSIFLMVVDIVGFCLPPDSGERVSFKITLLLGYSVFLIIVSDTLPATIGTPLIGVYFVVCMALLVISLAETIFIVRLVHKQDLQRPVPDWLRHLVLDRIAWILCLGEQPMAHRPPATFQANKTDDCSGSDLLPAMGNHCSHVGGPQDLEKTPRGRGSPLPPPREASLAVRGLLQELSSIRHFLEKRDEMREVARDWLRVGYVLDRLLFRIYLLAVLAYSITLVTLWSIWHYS
Assay type: cell-based, human α7 nAChR LBD, murine 5HT3 IPD
reported.conditions: HEK cells; Table 1
value.kind: pEC50
Give bare numbers, as −log10 of the molar value.

Using the record for Cn1cc(C(=O)C(=O)NC2CN3CCC2CC3)c2ccccc21 (stereo not shown) [RS56812] , state its measured pEC50.
5.24

====

target.of.assay: α4β2 nAChR (Homo sapiens, UniProt P17787+P43681)
protocol.text: Agonist potency at α4β2 nAChR
reported.conditions: […], α4β2 nAChR; Table 10
value.kind: EC50

Some entries whose results are on file:
- molecule: "Cc1nc2cc3c(cc2nc1Cn1cncn1)C1CNCC3C1 (stereo not shown)"
  value.kind: "EC50"
  value: "> 30 µM"
- molecule: "CCN(CC)c1nc2cc3c(cc2nc1C)C1CNCC3C1 (stereo not shown)"
  value.kind: "EC50"
  value: "> 30 µM"
- molecule: "COc1nc2cc3c(cc2nc1-c1ccccc1)C1CNCC3C1 (stereo not shown)"
  value.kind: "EC50"
  value: "> 30 µM"
- molecule: "Cc1nc2cc3c(cc2nc1Cn1cccn1)C1CNCC3C1 (stereo not shown)"
  value.kind: "EC50"
  value: "> 100 µM"

For the 6 molecules below, give their EC50 values.
1. Cc1nc2cc3c(cc2n(C)c1=O)C1CNCC3C1 (stereo not shown)
2. c1ncn(-c2cnc3cc4c(cc3n2)C2CNCC4C2)n1 (stereo not shown)
3. COc1nc2cc3c(cc2nc1C)C1CNCC3C1 (stereo not shown)
4. c1cn(-c2cnc3cc4c(cc3n2)C2CNCC4C2)cn1 (stereo not shown)
5. Cc1nc2cc3c(cc2nc1-n1cncn1)C1CNCC3C1 (stereo not shown)
6. FC(F)(F)c1cnc2cc3c(cc2n1)C1CNCC3C1 (stereo not shown)

["> 30 µM", "26 µM", "> 30 µM", "13.9 µM", "> 30 µM", "> 30 µM"]

====

target.of.assay: α7-GlyR (Homo sapiens, UniProt P36544)
Sequence (P36544 with tags, fused parts or gaps): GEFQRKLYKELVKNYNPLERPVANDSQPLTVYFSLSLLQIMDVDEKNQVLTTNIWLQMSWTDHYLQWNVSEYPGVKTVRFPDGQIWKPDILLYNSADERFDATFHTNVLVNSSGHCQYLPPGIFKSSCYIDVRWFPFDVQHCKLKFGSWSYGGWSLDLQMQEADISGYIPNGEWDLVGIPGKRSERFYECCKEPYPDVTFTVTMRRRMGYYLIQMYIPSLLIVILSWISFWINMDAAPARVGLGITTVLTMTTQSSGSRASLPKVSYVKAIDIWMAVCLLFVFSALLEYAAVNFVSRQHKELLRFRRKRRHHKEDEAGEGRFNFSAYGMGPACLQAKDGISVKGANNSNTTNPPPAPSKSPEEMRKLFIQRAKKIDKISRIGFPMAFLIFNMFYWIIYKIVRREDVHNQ
protocol.text: cell-based
Give EC50 for every item shown.

- compound: "c1cn(-c2cnc3cc4c(cc3n2)C2CNCC4C2)cn1 (stereo not shown)"
  EC50: "> 30 µM"
- compound: "FC(F)(F)c1cnc2cc3c(cc2n1)C1CNCC3C1 (stereo not shown)"
  EC50: "> 100 µM"

For the 4 compounds below, give their EC50 values.
1. Cc1nc2cc3c(cc2nc1Cn1cncn1)C1CNCC3C1 (stereo not shown)
2. Cc1nc2cc3c(cc2nc1-n1cncn1)C1CNCC3C1 (stereo not shown)
3. Cc1nc2cc3c(cc2nc1Cn1cccn1)C1CNCC3C1 (stereo not shown)
4. Cc1nc2cc3c(cc2nc1-c1ccncc1)C1CNCC3C1 (stereo not shown)

["> 30 µM", "> 30 µM", "> 100 µM", "> 30 µM"]

For the 4 compounds below, give their EC50 values.
1. Cc1nc2cc3c(cc2nc1-n1ccnc1)C1CNCC3C1 (stereo not shown)
2. Cc1ccccc1-c1cnc2cc3c(cc2n1)C1CC3CN(C)C1 (stereo not shown)
3. c1cncc(-c2cnc3cc4c(cc3n2)C2CNCC4C2)c1 (stereo not shown)
4. Cc1nc2cc3c(cc2[nH]c1=O)C1CNCC3C1 (stereo not shown)

> 30 µM
> 100 µM
> 30 µM
> 100 µM

For the 3 compounds below, give their EC50 values.
1. c1c2c(cc3nc4c(nc13)CCCC4)C1CNCC2C1
2. Cc1nc2cc3c(cc2nc1N(C)C)C1CNCC3C1 (stereo not shown)
3. c1cncc(-c2nc3cc4c(cc3[nH]2)C2CNCC4C2)c1 (stereo not shown)

1. > 100 µM
2. > 30 µM
3. > 100 µM

====

target.of.assay: UniProt P46098
Sequence (P46098 24-478): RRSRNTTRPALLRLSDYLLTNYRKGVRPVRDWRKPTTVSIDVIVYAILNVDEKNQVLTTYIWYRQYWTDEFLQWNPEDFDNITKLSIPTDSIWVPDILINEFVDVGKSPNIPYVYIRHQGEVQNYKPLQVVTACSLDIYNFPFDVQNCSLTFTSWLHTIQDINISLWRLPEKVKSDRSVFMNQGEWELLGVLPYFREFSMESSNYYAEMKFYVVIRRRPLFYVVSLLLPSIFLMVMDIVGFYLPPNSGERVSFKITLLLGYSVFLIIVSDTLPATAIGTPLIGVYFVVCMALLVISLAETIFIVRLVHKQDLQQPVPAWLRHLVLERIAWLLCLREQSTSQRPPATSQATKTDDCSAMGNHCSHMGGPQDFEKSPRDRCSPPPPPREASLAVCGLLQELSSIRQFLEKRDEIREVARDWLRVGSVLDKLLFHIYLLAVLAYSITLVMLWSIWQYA
protocol.text: Agonist potency at 5HT3-R
Format: cell-based
reported.conditions: […], 5HT3-R; Table 10
value.kind: pEC50
One number for each entry, as −log10 of the molar value.

For the 4 compounds below, give their pEC50 values.
1. Cc1nc2cc3c(cc2nc1-c1cccnc1)C1CNCC3C1 (stereo not shown) [compound 802]
2. c1cc(-c2cnc3cc4c(cc3n2)C2CNCC4C2)ccn1 (stereo not shown) [compound 805]
3. c1cncc(-c2cnc3cc4c(cc3n2)C2CNCC4C2)c1 (stereo not shown) [compound 804]
4. Cc1nc2cc3c(cc2nc1-c1ccncc1)C1CNCC3C1 (stereo not shown) [compound 803]

1: 5.82; 2: 6.00; 3: 5.70; 4: 6.12

====

target.of.assay: α7-5HT3 (Homo sapiens, UniProt P36544, M226I/T225I)
reported.conditions: read-out: Potency; Table 6
pEC50: −log10 of the molar value.
value.kind: pEC50

Using the record for c1ccc2c(c1)Sc1ccccc1N2CC1CN2CCC1CC2 (stereo not shown) [Mequitazine, reference compound] , state its measured pEC50.
< 4.52

====

target.of.assay: α4β2 nAChR (Homo sapiens, UniProt P17787+P43681)
protocol.text: Agonist potency at α4β2 nAChR
reported.conditions: […]
Give EC50 for every item shown.
Numbers only, in µM.

Some entries whose results are on file:
- compound: "Cc1nc2cc3c(cc2[nH]c1=O)C1CNCC3C1 (centres unmarked)"
  result.unit: "µM"
  EC50: 43
- compound: "Cc1nc2cc3c(cc2nc1-c1ccncc1)C1CNCC3C1 (centres unmarked)"
  result.unit: "µM"
  EC50: 14
- compound: "c1cc(-c2cnc3cc4c(cc3n2)C2CNCC4C2)ccn1 (centres unmarked)"
  result.unit: "µM"
  EC50: 4.9

Using the record for c1cncc(-c2cnc3cc4c(cc3n2)C2CNCC4C2)c1 (centres unmarked) , state its measured EC50.
4.8
